System: human CETP mRNA
test: Dose-dependent antisense inhibition of human CETP in SW872 liposarcoma cells (Example 3)
Format: cell-based
conditions: 50 nM, Lipofectin, ~16 hours (Example 3)
Strand notation (5' to 3'): a small letter for the sugar, then the base; units joined by * are phosphorothioate-linked, units joined directly phosphodiester-linked; [ ] holds rarer units or linkages, { } end groups; capitals alone tell only the bases. e = 2'-O-(2-methoxyethyl) (MOE); [5mC] = 5-methylcytosine; d = 2'-deoxy (DNA)
# reported percent inhibition of CETP; entries follow

substance	target_or_system	percent inhibition of CETP, %
ISIS 349517: 5-10-5 MOE gapmer CAGCACTTTAATGCCAGTGG (sugars from the 5' end e5 d10 e5, backbone and methylation of C not given here)	human CETP mRNA	76
ISIS 349513: 5-10-5 MOE gapmer TCCAGCTGTGAGCCTGGTGC (eT*e[5mC]*e[5mC]*eA*eG*d[5mC]*dT*dG*dT*dG*dA*dG*d[5mC]*d[5mC]*dT*eG*eG*eT*eG*e[5mC])	human CETP mRNA	87
ISIS 17305: CCAGTGGGCCTTTAGGATAG, 6-8-6 MOE; first disclosed in U.S. Ser. No. 11/031,827 (antisense; sugars from the 5' end e6 d8 e6, backbone and methylation of C not given here)	human CETP mRNA	18
ISIS 17302: GCTTGCCTTCTGCTACAAGC, 6-8-6 MOE; first disclosed in U.S. Ser. No. 11/031,827 (antisense; sugars from the 5' end e6 d8 e6, backbone and methylation of C not given here)	human CETP mRNA	0
ISIS 17291: GACAAGTGGCTGATCTGGAT, 6-8-6 MOE; first disclosed in U.S. Ser. No. 11/031,827 (antisense; sugars from the 5' end e6 d8 e6, backbone and methylation of C not given here)	human CETP mRNA	35

###

test: Plasma cholesterol and triglyceride levels in huCETP transgenic mice (Example 5)
Type: in vivo
conditions: plasma, 50 mg/kg i.p. twice per week, week 6
e = 2'-O-(2-methoxyethyl) (MOE); d = 2'-deoxy (DNA)
Here the recorded LDL is given for each entry.

substance	scale_unit	LDL
ISIS 349512: 5-10-5 MOE gapmer TTGCCTTCTGCTACAAGCCC (sugars from the 5' end e5 d10 e5, backbone and methylation of C not given here)	mg/dL	31
ISIS 349517: 5-10-5 MOE gapmer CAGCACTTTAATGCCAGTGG (sugars from the 5' end e5 d10 e5, backbone and methylation of C not given here)	mg/dL	15
ISIS 349511: 5-10-5 MOE gapmer CCCGACCTCCTTGGAGACTT (sugars from the 5' end e5 d10 e5, backbone and methylation of C not given here)	mg/dL	17
ISIS 349515: 5-10-5 MOE gapmer AACTTCCACCACGCTGGAGG (sugars from the 5' end e5 d10 e5, backbone and methylation of C not given here)	mg/dL	18

###

test: Plasma cholesterol and triglyceride levels in huCETP transgenic mice (Example 5)
Assay type: in vivo
conditions: plasma, 50 mg/kg i.p. twice per week, week 3
e = 2'-O-(2-methoxyethyl) (MOE); d = 2'-deoxy (DNA)
Item-by-item account of Total cholesterol

substance	scale_unit	Total cholesterol
ISIS 349512: 5-10-5 MOE gapmer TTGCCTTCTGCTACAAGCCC (sugars from the 5' end e5 d10 e5, backbone and methylation of C not given here)	mg/dL	85
ISIS 349511: 5-10-5 MOE gapmer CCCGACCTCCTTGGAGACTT (sugars from the 5' end e5 d10 e5, backbone and methylation of C not given here)	mg/dL	83
ISIS 349517: 5-10-5 MOE gapmer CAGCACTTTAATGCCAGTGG (sugars from the 5' end e5 d10 e5, backbone and methylation of C not given here)	mg/dL	79
ISIS 349515: 5-10-5 MOE gapmer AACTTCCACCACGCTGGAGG (sugars from the 5' end e5 d10 e5, backbone and methylation of C not given here)	mg/dL	89
